- tested_on: cloned human NR1/NR2B ion channels (Homo sapiens (Human), UniProt Q05586+Q13224)
- Sequence (Q13224 27-1484, other chains not shown): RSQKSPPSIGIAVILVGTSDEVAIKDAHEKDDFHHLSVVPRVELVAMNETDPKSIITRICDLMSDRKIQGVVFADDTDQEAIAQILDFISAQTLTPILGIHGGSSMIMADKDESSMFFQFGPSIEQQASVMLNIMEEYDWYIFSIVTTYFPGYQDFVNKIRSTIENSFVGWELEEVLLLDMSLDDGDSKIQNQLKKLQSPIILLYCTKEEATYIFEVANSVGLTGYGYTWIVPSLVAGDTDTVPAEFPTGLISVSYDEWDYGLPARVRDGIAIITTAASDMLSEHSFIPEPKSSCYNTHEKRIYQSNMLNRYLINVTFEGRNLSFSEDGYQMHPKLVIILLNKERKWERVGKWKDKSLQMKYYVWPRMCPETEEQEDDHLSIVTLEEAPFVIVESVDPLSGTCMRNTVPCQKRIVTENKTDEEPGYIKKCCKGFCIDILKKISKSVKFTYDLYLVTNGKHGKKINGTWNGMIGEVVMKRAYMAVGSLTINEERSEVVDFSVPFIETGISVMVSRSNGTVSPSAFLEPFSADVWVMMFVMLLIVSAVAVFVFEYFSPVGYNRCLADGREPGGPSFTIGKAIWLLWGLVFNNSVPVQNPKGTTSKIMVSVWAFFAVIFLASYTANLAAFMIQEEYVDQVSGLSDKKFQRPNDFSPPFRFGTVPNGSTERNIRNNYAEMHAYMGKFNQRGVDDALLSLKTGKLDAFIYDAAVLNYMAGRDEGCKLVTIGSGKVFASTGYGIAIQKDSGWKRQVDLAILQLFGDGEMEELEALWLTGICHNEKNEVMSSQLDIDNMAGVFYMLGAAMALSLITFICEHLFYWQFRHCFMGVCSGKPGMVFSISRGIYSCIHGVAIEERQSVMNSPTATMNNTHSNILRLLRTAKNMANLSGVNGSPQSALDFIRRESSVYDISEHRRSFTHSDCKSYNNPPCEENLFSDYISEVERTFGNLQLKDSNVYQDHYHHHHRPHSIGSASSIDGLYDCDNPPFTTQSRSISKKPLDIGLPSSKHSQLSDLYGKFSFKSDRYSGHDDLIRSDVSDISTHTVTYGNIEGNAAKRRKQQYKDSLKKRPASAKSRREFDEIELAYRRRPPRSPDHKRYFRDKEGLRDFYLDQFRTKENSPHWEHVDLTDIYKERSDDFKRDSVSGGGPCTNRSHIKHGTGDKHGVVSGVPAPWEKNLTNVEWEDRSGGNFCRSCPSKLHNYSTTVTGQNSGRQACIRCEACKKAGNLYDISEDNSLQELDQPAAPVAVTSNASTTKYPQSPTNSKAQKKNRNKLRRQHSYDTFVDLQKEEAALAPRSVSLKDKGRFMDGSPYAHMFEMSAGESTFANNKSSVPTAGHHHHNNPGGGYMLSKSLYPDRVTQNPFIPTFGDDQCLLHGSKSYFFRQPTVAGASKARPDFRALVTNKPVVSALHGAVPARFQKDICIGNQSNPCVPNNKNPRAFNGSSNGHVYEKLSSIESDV
- protocol: HNR2BC: effects of test articles on cloned human NR1/NR2B ion channels expressed in mammalian cells (FLIPR calcium flux)
- Assay type: cell-based
- condition_parameters: cloned human NR1/NR2B, Table 5
Where a name gives a salt, the structure may show the parent alone.
The entries below come with measured IC50 values attached.

{"columns": ["molecule", "IC50 [nM]"],
 "data": [
  ["O=C(Cn1ccc2ncc(-c3ccccc3F)cc21)N1CCOCC1 [Example 86]", 501],
  ["CC(C)C(=O)Cn1cc(F)c2ncc(-c3ccc(F)c(F)c3)cc21 [Example 326]", 200],
  ["Cc1cc(-c2cnc3c(F)cn(CC(=O)C4CC4)c3c2)ccc1F [Example 316]", 39.8],
  ["Cc1cc(-c2cnc3ccn(CC(F)C4CC4)c3c2)ccc1F (racemic) [Example 289]", 79.4],
  ["Cc1cc(-c2cnc3c(F)cn(CC(=O)N4CCC4)c3c2)ccc1F [Example 69]", 25.1],
  ["O=C(Cn1ccc2ncc(-c3ccccc3F)cc21)N1CCC1 [Example 71]", 7940],
  ["O=C(Cn1ccc2ncc(-c3ccccc3)cc21)N1CCCC1 [Example 78]", 1580],
  ["Cc1cc(-c2cnc3ccn(Cc4ncccn4)c3c2)ccc1F [Example 183, trifluoroacetate salt]", 31.6],
  ["CC(C)CNC(=O)Cn1ccc2ncc(-c3ccc(F)cc3)cc21 [Example 234]", 2510],
  ["Cc1ccc(-c2cnc3ccn(CC(=O)N4CCC4)c3c2)cn1 [Example 112]", 501],
  ["O=C(Cn1cc(Br)c2ncc(-c3ccc(F)cc3)cc21)N1CCC1 [Example 18]", 20],
  ["O=C(Cn1ccc2ncc(-c3ccc(F)cc3)cc21)N1CCC(O)C1 (racemic) [Example 218]", 398],
  ["O=C(Cn1cc(F)c2ncc(-c3cccc(C(F)F)c3)cc21)N1CC(F)C1 [Example 310]", 50.1],
  ["O=C(Cn1ccc2ncc(-c3ccc(F)c(F)c3)cc21)N1CC(F)(F)C1 [Example 361]", 25.1],
  ["O=C(Cn1ccc2ncc(-c3cccs3)cc21)N1CCCC1 [Example 278]", 251],
  ["CCC(=O)Cn1cc(F)c2ncc(-c3cc(C)cs3)cc21 [Example 339]", 12.6],
  ["Cc1cc(-c2cnc3ccn(CS(C)(=O)=O)c3c2)ccc1F [Example 332]", 1580],
  ["Cc1csc(-c2cnc3c(F)cn(CC(=O)N(C)C)c3c2)c1 [Example 96]", 50.1],
  ["O=C(Cn1ccc2ncc(-c3ccc(Cl)c(Cl)c3)cc21)N1CCC1 [Example 357, trifluoroacetate salt]", 20],
  ["O=C(Cn1ccc2ncc(-c3ccc(F)c(F)c3)cc21)N1CCOCC1 [Example 107]", 158],
  ["Cc1cc(-c2cnc3ccn(CC(=O)C4CC4)c3c2)ccc1F [Example 186, trifluoroacetate salt]", 39.8],
  ["Cc1c(-c2cnc3ccn(CC(=O)NC4CC4)c3c2)cccc1C(F)(F)F [Example 157, trifluoroacetate salt]", 251],
  ["O=C(Cn1cc(F)c2ncc(-c3cccc(C(F)F)c3)cc21)N1CCC1 [Example 323]", 100],
  ["O=C(Cn1ccc2ncc(-c3cc(F)cc(F)c3)cc21)N1CC(F)C1 [Example 129]", 25.1],
  ["O=C(Cn1ccc2ncc(-c3ccc(F)cc3)cc21)N1CCOCC1 [Example 88]", 251],
  ["O=C(Cn1ccc2ncc(-c3cccc(C(F)(F)F)c3F)cc21)N1CCC1 [Example 358, trifluoroacetate salt]", 39.8]
]}

---

- tested_on: cloned human NR1/NR2B ion channels (Homo sapiens (Human), UniProt Q05586+Q13224)
- protocol: HNR2BC: effects of test articles on cloned human NR1/NR2B ion channels expressed in mammalian cells (FLIPR calcium flux)
- Type: cell-based
- condition_parameters: cloned human NR1/NR2B ion channels, Table 5
pIC50: −log10 of the molar value.
The entries below come with measured pIC50 values attached.

{"columns": ["compound", "tested_on", "pIC50"],
 "data": [
  ["Cc1cn(CC(=O)N(C)C)c2cc(-c3cc(F)c(F)c(F)c3)cnc12 [Example 571]", "cloned human NR1/NR2B ion channels (Homo sapiens (Human), UniProt Q05586+Q13224)", 7.30],
  ["Cc1csc(-c2cnc3ccn(CC(=O)N4CC(F)C4)c3c2)c1 [Example 370]", "cloned human NR1/NR2B ion channels (Homo sapiens (Human), UniProt Q05586+Q13224)", 7.50],
  ["Cc1cccc(-c2cnc3c(Cl)cn(CC(=O)N4CCC4)c3c2)c1F [Example 522]", "cloned human NR1/NR2B ion channels (Homo sapiens (Human), UniProt Q05586+Q13224)", 7.10],
  ["Cc1cn(CC(=O)N2CC(F)(F)C2)c2cc(-c3cccc(C(F)(F)F)c3)cnc12 [Example 569]", "cloned human NR1/NR2B ion channels (Homo sapiens (Human), UniProt Q05586+Q13224)", 6.40]
]}

---

- tested_on: cloned human NR1/NR2B ion channels (Homo sapiens (Human), UniProt Q05586+Q13224)
- protocol: HNR2BC: effects of test articles on cloned human NR1/NR2B ion channels expressed in mammalian cells (FLIPR calcium flux)
- Format: cell-based
- condition_parameters: cloned human NR1/NR2B ion channels, Table 5
pIC50: −log10 of the molar value. Counter-ions that a name gives are not always drawn.

{"columns": ["compound", "tested_on", "pIC50"],
 "data": [
  ["O=C(Cn1cc(Cl)c2ncc(-c3ccc(F)c(C(F)(F)F)c3)cc21)N1CCC1", "cloned human NR1/NR2B ion channels (Homo sapiens (Human), UniProt Q05586+Q13224)", 6.80],
  ["CN(C)C(=O)Cn1cc(Cl)c2ncc(-c3cccc(Cl)c3)cc21", "cloned human NR1/NR2B ion channels (Homo sapiens (Human), UniProt Q05586+Q13224)", 7.50],
  ["Cc1csc(-c2cnc3c(C)cn(CC(=O)N(C)C)c3c2)c1", "cloned human NR1/NR2B ion channels (Homo sapiens (Human), UniProt Q05586+Q13224)", 6.90],
  ["CCc1ccc(-c2cnc3c(F)cn(CC(=O)N4CC(F)C4)c3c2)s1 [Example 398, trifluoroacetate salt]", "cloned human NR1/NR2B ion channels (Homo sapiens (Human), UniProt Q05586+Q13224)", 7.40],
  ["CCN(C)C(=O)Cn1ccc2ncc(-c3cccc(C)c3)cc21", "cloned human NR1/NR2B ion channels (Homo sapiens (Human), UniProt Q05586+Q13224)", 7.40],
  ["O=C(Cn1cc(F)c2ncc(-c3cccs3)cc21)N1CCC1 [Example 389, trifluoroacetate salt]", "cloned human NR1/NR2B ion channels (Homo sapiens (Human), UniProt Q05586+Q13224)", 6.80],
  ["Cc1cc(-c2cnc3c(C)cn(CC(=O)N4CC(F)C4)c3c2)ccc1F", "cloned human NR1/NR2B ion channels (Homo sapiens (Human), UniProt Q05586+Q13224)", 7.10],
  ["O=C(Cn1cc(F)c2ncc(-c3ccccc3F)cc21)N1CCC1", "cloned human NR1/NR2B ion channels (Homo sapiens (Human), UniProt Q05586+Q13224)", 7.00],
  ["CCN(C)C(=O)Cn1cc(C)c2ncc(-c3ccccc3)cc21", "cloned human NR1/NR2B ion channels (Homo sapiens (Human), UniProt Q05586+Q13224)", 6.70],
  ["FC(F)(F)c1cccc(-c2cnc3ccn(Cc4cccnn4)c3c2)c1", "cloned human NR1/NR2B ion channels (Homo sapiens (Human), UniProt Q05586+Q13224)", 5.60],
  ["CCN(C)C(=O)Cn1ccc2ncc(-c3cccc(C(F)(F)F)c3)cc21", "cloned human NR1/NR2B ion channels (Homo sapiens (Human), UniProt Q05586+Q13224)", 6.70],
  ["O=C(Cn1ccc2ncc(-c3ccc(Cl)s3)cc21)N1CC(F)C1", "cloned human NR1/NR2B ion channels (Homo sapiens (Human), UniProt Q05586+Q13224)", 7.80],
  ["Cc1csc(-c2cnc3c(C)cn(CC(=O)N4CC(F)C4)c3c2)c1", "cloned human NR1/NR2B ion channels (Homo sapiens (Human), UniProt Q05586+Q13224)", 7.10],
  ["Cc1cccc(-c2cnc3c(F)c(C)n(CC(=O)N4CCC4)c3c2)c1", "cloned human NR1/NR2B ion channels (Homo sapiens (Human), UniProt Q05586+Q13224)", 6.40]
]}

---

The entries below come with measured pIC50 values attached.
- tested_on: cloned human NR1/NR2B ion channels (Homo sapiens (Human), UniProt Q05586+Q13224)
- protocol: HNR2BC: effects of test articles on cloned human NR1/NR2B ion channels expressed in mammalian cells (FLIPR calcium flux)
- Assay type: cell-based
- condition_parameters: cloned human NR1/NR2B, Table 5
pIC50: −log10 of the molar value. Where a name gives a salt, the structure may show the parent alone.

{"columns": ["compound", "pIC50"],
 "data": [
  ["O=C(Cn1ccc2ncc(-c3cccc(F)c3)cc21)C1CC1", 7.10],
  ["CCc1cccc(-c2cnc3ccn(CC(=O)N4CC(F)C4)c3c2)c1 [Example 268, trifluoroacetate salt]", 7.10],
  ["Cc1cc(Cn2ccc3ncc(-c4cc(F)cc(F)c4)cc32)no1 [Example 64, trifluoroacetate salt]", 7.20],
  ["O=C(Cn1cc(F)c2ncc(-c3cc(F)c(F)c(F)c3)cc21)N1CCCC1", 7.10],
  ["Cc1cc(Cn2ccc3ncc(-c4ccc(F)cc4)cc32)no1 [Example 65, trifluoroacetate salt]", 7.10],
  ["CCc1ccc(-c2cnc3ccn(CC(=O)N4CC(F)(F)C4)c3c2)s1", 7.00],
  ["Cc1cc(-c2cnc3c(F)cn(CC(=O)C(C)C)c3c2)ccc1F", 7.00]
]}
